# SYSTEM_UNDER_TEST: cGMP-specific 3',5'-cyclic phosphodiesterase (Homo sapiens, UniProt O76074)
# EXPERIMENT_DESCRIPTION: Concentration required to inhibit phosphodiesterase type 5 (PDE5) isolated from corpus cavernosum by 50% was determined
VALUE_TYPE: pIC50
The meaning of pIC50 here: minus log10 of the concentration in molar units.

See these solved cases before continuing.
CCn1c(=O)c2c(nc(NC3CCCC3)n2Cc2ccc(OC)c(Cl)c2)n(CC)c1=O :: 8.96
CCn1c(=O)c2c(nc(NC3CCCCC3)n2Cc2ccc(O)c(C)c2)n(CC)c1=O :: 8.35
CCn1c(=O)c2c(nc(NC3CCCC3)n2Cc2ccc(O)c(Cl)c2)n(CC)c1=O :: 8.74

stdin: Field: pIC50 (cGMP-specific 3',5'-cyclic phosphodiesterase (Homo sapiens, UniProt O76074)). Entry: CCn1c(=O)c2c(nc(NC3CCCCC3)n2Cc2ccc(OC)c(Br)c2)n(CC)c1=O
stdout: 8.77

Data origin: ChEMBL document CHEMBL1134944
